molecular target: glucagon receptor (GCGR) (human, UniProt P47871 26-477); assay: cell-based or functional assay
Sequence (P47871 26-477): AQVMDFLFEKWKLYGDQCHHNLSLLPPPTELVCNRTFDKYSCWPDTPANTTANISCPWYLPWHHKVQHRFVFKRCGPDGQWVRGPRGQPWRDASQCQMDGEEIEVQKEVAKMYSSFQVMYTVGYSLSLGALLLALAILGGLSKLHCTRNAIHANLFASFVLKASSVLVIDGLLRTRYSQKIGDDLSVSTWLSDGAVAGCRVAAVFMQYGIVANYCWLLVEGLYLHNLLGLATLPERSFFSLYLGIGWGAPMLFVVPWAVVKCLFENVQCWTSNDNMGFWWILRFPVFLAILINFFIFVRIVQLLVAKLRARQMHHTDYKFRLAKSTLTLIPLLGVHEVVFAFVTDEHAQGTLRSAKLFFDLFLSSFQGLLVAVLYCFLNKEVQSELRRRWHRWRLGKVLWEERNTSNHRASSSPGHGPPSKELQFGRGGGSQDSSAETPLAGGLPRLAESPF
Starred links: 1 amine or outer side, 2 acyl side, 3 side chain; linkers in the order of their positions; H or OH if unused. Non-standard residues stand in square brackets, D forms with d. Groups on a side chain read outwards from the residue. Primed or numbered codes have the meaning given here. No end group written: not given here. *: point of attachment. Dodecanoyl(12-OPh(4-COOH)) = O=C(O)c1ccc(OCCCCCCCCCCCC(=O)*)cc1; γGlu = O=C(O)[C@H](CCC(=O)[*:2])N[*:1]; Stearoyl = CCCCCCCCCCCCCCCCCC(=O)*; αMeF = C[C@](N)(Cc1ccccc1)C(=O)O; αMeK = C[C@](N)(CCCCN)C(=O)O; αMeS = C[C@](N)(CO)C(=O)O; PEG2′ = not defined here; Aib = CC(C)(N)C(=O)O
Task for the reader: assign each of the following binders its reported cAMP Primary assay EC50 Gluc-R.
# include the unit after the value

Worked set:
INSERT INTO assay_data (binder, quantityname, observedmeasurement) VALUES
  ('H[Aib]EGS[αMeF]TSDV[αMeS]S[αMeF]LEGEAAK([PEG2′-PEG2′-Dodecanoyl(12-OPh(4-COOH))])E[αMeF]IA[αMeF]VV[αMeK]GG-NH2 [SEQ ID NO 144]', 'cAMP Primary assay EC50 Gluc-R', '26 nM'),
  ('H[Aib]EGS[αMeF]TSDV[αMeS]S[αMeF]LEGEAA[αMeK]E[αMeF]K([PEG2′-PEG2′-γGlu-Stearoyl])A[αMeF]VV[αMeK]GG-NH2 [SEQ ID NO 106]', 'cAMP Primary assay EC50 Gluc-R', '25 nM'),
  ('H[Aib]EGS[αMeF]TSDV[αMeS]S[αMeF]LEGEAA[αMeK]E[αMeF]IA[αMeF]K([PEG2′-PEG2′-γGlu-Stearoyl])V[αMeK]GG-NH2 [SEQ ID NO 103]', 'cAMP Primary assay EC50 Gluc-R', '25 nM'),
  ('HXEGSFTSDVSKFLEGEAAKEFIAFVVKGG (Aib 2; α-MeF 6, 13, 22, 25; α-MeS 11; α-MeK 20, 28; K(ε-γE-Palmitoyl) 12; C-terminal amide) [SEQ ID NO 88]', 'cAMP Primary assay EC50 Gluc-R', '28 nM'),
  ('H[Aib]EGS[αMeF]TK([PEG2′-PEG2′-γGlu-Stearoyl])DV[αMeS]S[αMeF]LEGEAA[αMeK]E[αMeF]IA[αMeF]VV[αMeK]GG-NH2 [SEQ ID NO 121]', 'cAMP Primary assay EC50 Gluc-R', '25 nM'),
  ('H[Aib]EGS[αMeF]TSDK([PEG2′-PEG2′-γGlu-Stearoyl])[αMeS]S[αMeF]LEGEAA[αMeK]E[αMeF]IA[αMeF]VV[αMeK]GG-NH2 [SEQ ID NO 119]', 'cAMP Primary assay EC50 Gluc-R', '25 nM'),
  ('H[Aib]EGS[αMeF]TSDV[αMeS]S[αMeF]LEGEAAK([PEG2′-Stearoyl])E[αMeF]IA[αMeF]VV[αMeK]GG-NH2 [SEQ ID NO 152]', 'cAMP Primary assay EC50 Gluc-R', '28 nM'),
  ('H[Aib]EGS[αMeF]TSDV[αMeS]SK([PEG2′-PEG2′-γGlu-Stearoyl])LEGEAA[αMeK]E[αMeF]IA[αMeF]VV[αMeK]GG-NH2 [SEQ ID NO 116]', 'cAMP Primary assay EC50 Gluc-R', '26 nM');

Now, please, on to the next binder.
Problem: Which cAMP Primary assay EC50 Gluc-R value belongs to H[Aib]EGS[αMeF]TSDVK([PEG2′-PEG2′-γGlu-Stearoyl])S[αMeF]LEGEAA[αMeK]E[αMeF]IA[αMeF]VV[αMeK]GG-NH2 [SEQ ID NO 118] ?
Solution: 25 nM
